- Measured target: Cytochrome P450 3A4 (Homo sapiens)
- Sequence (P08684 whole entry): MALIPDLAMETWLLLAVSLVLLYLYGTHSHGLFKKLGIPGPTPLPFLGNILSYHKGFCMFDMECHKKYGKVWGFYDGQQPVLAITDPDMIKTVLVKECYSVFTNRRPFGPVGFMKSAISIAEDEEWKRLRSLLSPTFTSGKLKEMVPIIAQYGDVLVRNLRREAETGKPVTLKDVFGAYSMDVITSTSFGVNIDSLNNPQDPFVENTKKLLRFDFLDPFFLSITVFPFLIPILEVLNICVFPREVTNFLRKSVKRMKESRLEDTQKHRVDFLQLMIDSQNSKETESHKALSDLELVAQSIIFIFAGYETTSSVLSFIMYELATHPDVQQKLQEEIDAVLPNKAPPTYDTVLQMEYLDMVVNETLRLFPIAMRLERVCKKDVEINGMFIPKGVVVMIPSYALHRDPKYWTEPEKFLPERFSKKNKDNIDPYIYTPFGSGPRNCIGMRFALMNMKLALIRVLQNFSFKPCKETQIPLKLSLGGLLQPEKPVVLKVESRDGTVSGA
- Test description: Inhibition of CYP3A4 in human liver microsomes by LC-MS/MS analysis
- Format: ADME, Microsome
Metric name: IC50

Q: What does the record list as IC50 for Cc1cc(=O)n(-c2ccc(N3CCC(Cc4ccc(Cl)c(F)c4)CC3)c(Cl)c2)c(C)n1 ?
Result: > 10 µM

###

- Test description: Volume of distribution at steady state in cynomolgus monkey at 1 mg/kg, iv by LC-MS/MS analysis
- Assay type: ADME, organism-based, Macaca fascicularis
- Condition summary: in vivo, read-out: Vdss
Metric name: Vd (L/kg)
Write it as a number; the unit L/kg goes unstated.

Q: What does the record list as Vd for Cc1cc(=O)n(-c2ccc(N3CCC(Cc4ccc(Cl)c(F)c4)CC3)c(Cl)c2)c(C)n1 ?
Result: 3.9

###

- Test description: Cmax in Sprague-Dawley rat model of bleomycin-induced pulmonary fibrosis at 10 mg/kg, po by LC-MS/MS analysis
- Format: ADME, organism-based
- Set-up: dose 10 mg/kg, route po
- Condition summary: in vivo
Metric name: Cmax (ng/mL)
Write it as a number; the unit ng/mL goes unstated.

Q: What does the record list as Cmax for Cc1ccc(=O)n(-c2ccccc2)c1 ?
Result: 5070

###

- Test description: Cmax in Sprague-Dawley rat model of bleomycin-induced pulmonary fibrosis at 5 mg/kg, po by LC-MS/MS analysis
- Assay type: ADME, organism-based
- Set-up: dose 5 mg/kg, route po
- Condition summary: in vivo
Quick reference: Cmax of the listed items.
Write it as a number; the unit ng/mL goes unstated.

[[record]]
given_smiles = "Cc1cc(=O)n(-c2ccc(N3CCC(Cc4ccc(Cl)c(F)c4)CC3)c(Cl)c2)c(C)n1"
endpoint_result = 1120


Please examine the following record next.
Q: What does the record list as Cmax for Cc1cc(=O)n(-c2ccc(N3CCOCC3)c(F)c2)c(C)n1 ?
Result: 4720

###

- Test description: AUClast in cynomolgus monkey at 5 mg/kg, po by LC-MS/MS analysis
- Type: ADME, organism-based, Macaca fascicularis
- Parameters: time 0 - last, dose 5 mg/kg, route po
- Condition summary: in vivo
Metric name: AUC(0-t)
Could you kindly put the unit after your number?

Q: What does the record list as AUC(0-t) for Cc1cc(=O)n(-c2ccc(N3CCC(Cc4ccc(Cl)c(F)c4)CC3)c(Cl)c2)c(C)n1 ?
Result: 12900 ng·h/mL

###

- Test description: Oral bioavailability in dog at 5 mg/kg by LC-MS/MS analysis
- Assay type: ADME, organism-based, Canis lupus familiaris
- Condition summary: in vivo
Metric name: bioavailability (%)
Write it as a number; the unit % goes unstated.

Q: What does the record list as bioavailability for Cc1cc(=O)n(-c2ccc(N3CCC(Cc4ccc(Cl)c(F)c4)CC3)c(Cl)c2)c(C)n1 ?
Result: 15

###

- Test description: Half life in Sprague-Dawley rat model of bleomycin-induced pulmonary fibrosis at 2 mg/kg, iv by LC-MS/MS analysis
- Format: ADME, organism-based
- Condition summary: in vivo
Quick reference: log10 of half-life of the listed items.
Hello, just confirming the data are log10 of half-life with units of h.

Consider the following illustrative entries.
[[record]]
compound = "Cc1ccc(=O)n(-c2ccccc2)c1 [PIRFENIDONE]"
endpoint_result = -0.40

[[record]]
compound = "Cc1cc(=O)n(-c2ccc(N3CCC(Cc4cccc5ccccc45)CC3)c(F)c2)c(C)n1"
endpoint_result = 0.72

[[record]]
compound = "Cc1cc(=O)n(-c2ccc(N3CCC(COc4cccc(F)c4)CC3)c(Cl)c2)c(C)n1"
endpoint_result = 0.83

[[record]]
compound = "Cc1cc(=O)n(-c2ccc(N3CCC(Cc4ccc(Cl)c(F)c4)CC3)c(Cl)c2)c(C)n1"
endpoint_result = 1.41

[[record]]
compound = "Cc1cc(=O)n(-c2ccc(N3CCC(Cc4cccc(Cl)c4)CC3)c(Cl)c2)c(C)n1"
endpoint_result = 1.04


Q: What does the record list as log10 of half-life for Cc1cc(=O)n(-c2ccc(N3CCC(Cc4cc(F)c(F)c(F)c4)CC3)c(Cl)c2)c(C)n1 ?
Result: 0.91

Q: What does the record list as log10 of half-life for Cc1cc(=O)n(-c2ccc(N3CCC(Cc4cccc(C(F)(F)F)c4)CC3)c(Cl)c2)c(C)n1 ?
Result: 1.13

###

- Test description: Intrinsic clearance in rat liver microsomes by LC-MS/MS analysis
- Assay type: ADME, Microsome
- Condition summary: read-out: CLH
Metric name: CLint scaled (mL/min/kg)
Write it as a number; the unit mL/min/kg goes unstated.

Q: What does the record list as CLint scaled for Cc1cc(=O)n(-c2ccc(N3CCC(Cc4ccc(Cl)c(F)c4)CC3)c(Cl)c2)c(C)n1 ?
Result: 24.2
